The origin of these recorded values is ChEMBL document CHEMBL1201862.

- target_or_system: Genome polyprotein (dengue virus type 2, UniProt P29990)
- assay: flavivirus cap methylation enzyme inhibition – biochemical, confirmation dose response, primary screen (AID 588689)
- Assay type: functional
The source made the active and inactive calls.
measurement_name: IC50

-- ask Request the reported IC50 associated with O=C1CCC/C(=N/Nc2ccc(Cl)cc2)C1
-- reply 93.3 µM (active)

-- ask Fill in: IC50 of O=C(Cc1csc(N2CCOCC2)n1)N/N=C/c1ccc(O)c(O)c1O is ___
-- reply > 100 µM (active)

-- ask Requested read-out: IC50. Entry: CC1=NN(c2ccc(Br)cc2)C(=O)/C1=C/c1ccc(-c2ccccc2C(=O)O)o1
-- reply 30 µM (active)

-- ask Recorded IC50 of Cc1cc[n+](-c2[n-]c(=O)sc2C=NNC(=O)c2ccncc2)cc1 , please.
-- reply 83.8 µM (active)

-- ask I'd like to know its IC50. The compound in question is Fc1cccc(Cl)c1CNc1ccc(N2CCCC2)cc1
-- reply 35.6 µM (active)

-- ask Please look up its IC50: O=C1/C(=C/c2nc3ccccc3[nH]2)SC(=S)N1NS(=O)(=O)c1ccccc1
-- reply 54.7 µM (active)

-- ask # query: IC50 of entry CC(=O)C1=C(O)C(=O)N(c2cc(C(C)(C)C)on2)C1c1ccc(C(C)C)cc1 (configuration not stated)
-- reply 95.3 µM (active)

-- ask So what does the record say about IC50 for COc1cc(/C=C2/C(=N)N3C(c4ccccc4)=CSC3=NC2=O)ccc1OCC(=O)O ?
-- reply > 100 µM (active)

-- ask Give the measured IC50 of Cc1ccc(Cl)c2c(C3=NC(=S)NC3=O)c(O)[nH]c12 .
-- reply 61.5 µM (active)

-- ask Using the record for O=C(O)c1ccc2c(c1)[C@@H]1C=CC[C@@H]1[C@H](c1ccccn1)N2 , report its IC50.
-- reply 26.3 µM (active)

-- ask What does the data say about its IC50? Entry: Cc1ccc(C(=O)/C=C/C(=O)O)cc1
-- reply > 100 µM (active)

-- ask Using the record for CSc1nc(O)c(C(c2ccc(OC(C)C)cc2)c2c(O)nc(SC)nc2O)c(O)n1 , report its IC50.
-- reply 32.9 µM (active)

---

- System: Streptococcus sp. 'group A'
- assay: Streptococcus pyogenes SK(-)GAS viability under kanamycin – luminescence, BacTiterGlo, confirmation, counter-screen for streptokinase expression inhibitor project, dose response (AID 1900)
- Format: functional, organism-based
Activity calls are given as the source filed them.
Can you tell me EC50 for the items I'm about to list?

-- ask Query (molecule): CC(C)(C)[C@@H]1CCC(=O)N(CC[C@H](Sc2ccccc2)c2ccccc2)CC1 ; field requested: EC50
-- reply 6.49 µM (active)

-- ask Entry CCOc1ccc(N2C(=O)/C(=C\NNC(=O)C3COc4ccccc4O3)c3ccccc3C2=O)cc1 (stereo not given) has what EC50?
-- reply 1.63 µM (active)

-- ask So what does the record say about EC50 for O=C(COc1ccc(F)cc1Cl)Nc1nc(-c2ccccn2)cs1 ?
-- reply 0.751 µM (active)

-- ask Quick check: EC50 of Cc1cc(C)n(-c2nc(Nc3ccccc3C)nc(-n3nc(C)cc3C)n2)n1 ?
-- reply 8.77 µM (active)

-- ask Entry under review: CN1C(=O)/C(=N\CCc2ccccc2)c2c3ccccc3c(O)c3cccc1c23 . Reported EC50?
-- reply 11.3 µM (active)

-- ask Entry COc1cccc(/C=N/n2c(N)nc3ccccc32)c1OC : reported EC50 = ?
-- reply > 150 µM (not active)

-- ask Reported EC50, molecule COc1ccccc1-c1nnc(Nc2nc3c(OC)cccc3s2)o1 : ____
-- reply 1.67 µM (active)

-- ask Return reported EC50; argument: O=C(COc1ccc(F)cc1)Nc1nc(-c2ccccn2)cs1
-- reply 7.19 µM (active)

-- ask # get_value(readout='EC50', item= O=C(NCc1ccc2c(c1)OCO2)C(=O)NCC1OCCN1S(=O)(=O)c1ccc(Br)cc1 (stereo not given) )
-- reply > 150 µM (not active)

-- ask Which EC50 is reported for this molecule? COc1ccc2c(c1)c(CC(=O)Nc1cccc(S(N)(=O)=O)c1)c(C)n2C(=O)c1ccc(Cl)cc1
-- reply 5.48 µM (active)

---

- target_or_system: Dual specificity protein phosphatase 6 (Rattus norvegicus);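 further: confirmatory in vitro dose-response testing of MKP-3 inhibition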;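 further: recombinant His-tagged MKP-3 made in E. coli BL21 with OMFP substrate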
- Sequence (Q64346 whole entry): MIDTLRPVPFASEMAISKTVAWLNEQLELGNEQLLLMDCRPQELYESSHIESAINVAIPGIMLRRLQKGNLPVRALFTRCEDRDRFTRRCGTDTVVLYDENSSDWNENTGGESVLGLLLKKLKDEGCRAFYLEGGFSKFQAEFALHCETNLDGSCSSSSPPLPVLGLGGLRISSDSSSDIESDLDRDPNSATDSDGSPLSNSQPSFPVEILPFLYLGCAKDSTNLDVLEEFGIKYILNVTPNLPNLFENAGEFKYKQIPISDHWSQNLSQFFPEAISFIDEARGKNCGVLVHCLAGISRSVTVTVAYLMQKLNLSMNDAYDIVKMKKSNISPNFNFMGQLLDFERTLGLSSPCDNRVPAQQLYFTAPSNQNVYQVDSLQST
- Type: functional
Calls of active or inactive are those of the source.
Hi there, use one of these labels in your reply, thanks! active, inactive

-- ask Any idea what this test logged for Clc1ccccc1CSc1nnc(-c2ccco2)c(-c2ccco2)n1 ?
-- reply active

-- ask Given Cc1cc(O)c2c(c1)C1C=CCC1C(C(=O)O)N2 (stereo not given) , state the outcome it received in this test.
-- reply inactive

-- ask Field: outcome | Entry: O=C(O)C1Nc2c(cccc2S(=O)(=O)c2ccccc2)C2C=CCC12 (stereo not given)
-- reply active

-- ask Outcome logged for CCOC(=O)C1=C(C)N=c2s/c(=C/c3cc(Cl)c(OCC(=O)O)c(OC)c3)c(=O)n2C1c1ccccc1Cl (stereo not given) in this assay:
-- reply active

-- ask Query: recorded result category for O=C(O)C1Nc2ccc([N+](=O)[O-])cc2C2C=CCC12 (stereo not given) in this test
-- reply active

---

- target_or_system: Serine/threonine-protein kinase pim-1 (Homo sapiens, UniProt P11309)
- Sequence (P11309 whole entry): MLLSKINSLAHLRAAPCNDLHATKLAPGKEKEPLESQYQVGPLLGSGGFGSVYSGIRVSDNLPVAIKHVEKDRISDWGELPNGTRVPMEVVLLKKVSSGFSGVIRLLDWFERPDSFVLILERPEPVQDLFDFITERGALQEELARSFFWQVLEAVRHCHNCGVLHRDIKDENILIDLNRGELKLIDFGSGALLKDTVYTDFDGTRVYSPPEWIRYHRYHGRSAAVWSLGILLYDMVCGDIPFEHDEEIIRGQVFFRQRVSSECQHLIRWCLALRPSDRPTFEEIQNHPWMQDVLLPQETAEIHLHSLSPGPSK
- Format: functional
The source made the active and inactive calls.
Pick one and only one: 1 (yes) (active), 0 (no) (inactive)

-- ask Lab log entry: O=C1Nc2cc(-c3ccc(O)cc3)ccc2C1=Cc1ccc[nH]1 — outcome as called in the assay?
-- reply 1 (yes)

-- ask Answer briefly: the call reported for O=C(Nc1ccccc1N1CCCC1)c1ccc2ccccc2n1 in this assay.
-- reply 0 (no)

-- ask Just curious, what result did C=CCNc1cc(-c2c[nH]c3ncccc23)cc(Cl)n1 get here?
-- reply 1 (yes)

-- ask Name the outcome recorded for Fc1cccc(-c2c[nH]c3ncccc23)c1 in the assay.
-- reply 1 (yes)

-- ask I would be grateful if you could indicate the recorded call for CCOC(=O)c1c[nH]n2c(=O)cc(-c3ccncc3)nc12 .
-- reply 1 (yes)

-- ask I would be grateful if you could indicate the recorded call for CCCCOc1cc(-c2ccncc2)cc2[nH]nc(N)c12 .
-- reply 1 (yes)

-- ask Hi, do you know how NC(COc1cncc(-c2ccc3c(c2)C(=Cc2ccc[nH]2)C(=O)N3)c1)Cc1ccccc1 (centres undefined) came out in this test?
-- reply 1 (yes)

-- ask GET /call?item= O=C1Nc2ccccc2Nc2cc(-c3ccncc3Cl)ccc21 returns the recorded outcome of this test.
-- reply 0 (no)

-- ask Test call, this compound: O=C1Cc2cc(-c3ccccc3)cnc2N1
-- reply 1 (yes)

---

- target_or_system: ALK tyrosine kinase receptor (Homo sapiens);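 further: ALK tested as one member of a kinase panel screen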
- Sequence (Q9UM73 whole entry): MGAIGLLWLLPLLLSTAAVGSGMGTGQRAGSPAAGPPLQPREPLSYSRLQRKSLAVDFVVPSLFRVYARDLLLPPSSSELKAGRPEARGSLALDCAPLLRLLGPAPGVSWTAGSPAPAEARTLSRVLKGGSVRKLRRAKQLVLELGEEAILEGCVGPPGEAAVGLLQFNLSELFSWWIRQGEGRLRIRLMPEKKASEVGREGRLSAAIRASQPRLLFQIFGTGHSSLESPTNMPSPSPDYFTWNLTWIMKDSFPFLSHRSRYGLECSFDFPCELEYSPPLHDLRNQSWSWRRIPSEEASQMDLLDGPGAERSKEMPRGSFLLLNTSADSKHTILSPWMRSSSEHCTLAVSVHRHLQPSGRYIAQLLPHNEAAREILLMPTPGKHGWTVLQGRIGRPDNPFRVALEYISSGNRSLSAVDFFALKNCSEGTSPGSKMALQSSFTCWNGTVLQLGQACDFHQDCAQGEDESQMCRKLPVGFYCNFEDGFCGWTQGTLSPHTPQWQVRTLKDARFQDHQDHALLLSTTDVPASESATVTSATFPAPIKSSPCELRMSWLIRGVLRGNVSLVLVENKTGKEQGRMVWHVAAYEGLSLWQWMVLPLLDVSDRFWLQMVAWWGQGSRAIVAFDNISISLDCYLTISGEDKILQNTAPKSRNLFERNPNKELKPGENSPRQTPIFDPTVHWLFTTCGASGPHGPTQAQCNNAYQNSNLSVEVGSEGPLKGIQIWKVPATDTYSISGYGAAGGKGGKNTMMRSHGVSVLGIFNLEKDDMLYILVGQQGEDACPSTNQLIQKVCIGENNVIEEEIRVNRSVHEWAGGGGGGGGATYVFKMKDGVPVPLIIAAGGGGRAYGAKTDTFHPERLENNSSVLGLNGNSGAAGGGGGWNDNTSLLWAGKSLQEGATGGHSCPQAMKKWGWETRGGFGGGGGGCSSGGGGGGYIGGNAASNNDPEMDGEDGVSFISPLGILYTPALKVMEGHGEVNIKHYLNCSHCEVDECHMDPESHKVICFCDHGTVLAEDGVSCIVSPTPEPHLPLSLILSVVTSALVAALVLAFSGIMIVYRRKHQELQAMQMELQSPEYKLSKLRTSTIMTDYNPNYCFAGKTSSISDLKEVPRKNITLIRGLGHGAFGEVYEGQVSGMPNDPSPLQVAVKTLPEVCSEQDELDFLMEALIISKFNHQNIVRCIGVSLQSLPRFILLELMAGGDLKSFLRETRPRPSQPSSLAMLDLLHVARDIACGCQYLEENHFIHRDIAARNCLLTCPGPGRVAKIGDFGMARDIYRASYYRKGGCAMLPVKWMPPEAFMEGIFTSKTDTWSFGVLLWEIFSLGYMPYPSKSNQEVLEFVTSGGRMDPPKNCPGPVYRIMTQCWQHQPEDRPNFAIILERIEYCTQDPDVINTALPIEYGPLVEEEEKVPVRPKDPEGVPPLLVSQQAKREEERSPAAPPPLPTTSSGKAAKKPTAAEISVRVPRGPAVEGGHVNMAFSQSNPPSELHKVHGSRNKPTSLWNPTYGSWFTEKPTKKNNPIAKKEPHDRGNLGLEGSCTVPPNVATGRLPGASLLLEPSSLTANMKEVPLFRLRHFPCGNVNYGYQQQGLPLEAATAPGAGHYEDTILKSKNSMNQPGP
- Format: functional
Active and inactive are the calls of the source.
Permitted responses: 1.0 for active, 0.0 for inactive

-- ask Lab log entry: O=C(Nc1ccccc1N1CCCC1)c1ccc2ccccc2n1 — outcome as called in the assay?
-- reply 0.0

-- ask Dear all, I need the recorded test outcome for O=C1Cc2cc(-c3ccccc3)cnc2N1 , thank you.
-- reply 1.0

-- ask So what was the verdict on O=C1Nc2cc(-c3ccc(O)cc3)ccc2C1=Cc1ccc[nH]1 in this test?
-- reply 1.0

-- ask Hello, I am checking results. What call was entered for NC(COc1cncc(-c2ccc3c(c2)C(=Cc2ccc[nH]2)C(=O)N3)c1)Cc1ccccc1 (centres undefined) ?
-- reply 1.0

---

Please provide measured EC50 for the entries that follow.
- target_or_system: RNA-binding protein pos-1 (Caenorhabditis elegans)
- Sequence (G5EF15 whole entry, the tested form may be a part): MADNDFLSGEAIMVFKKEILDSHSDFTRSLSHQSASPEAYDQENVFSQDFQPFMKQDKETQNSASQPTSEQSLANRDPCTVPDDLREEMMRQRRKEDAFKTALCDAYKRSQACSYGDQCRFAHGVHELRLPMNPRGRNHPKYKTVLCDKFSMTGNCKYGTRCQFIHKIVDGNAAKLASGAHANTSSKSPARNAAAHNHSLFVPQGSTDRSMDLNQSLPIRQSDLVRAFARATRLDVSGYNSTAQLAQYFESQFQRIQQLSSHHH
- assay: disruptors of C. elegans POS-1 RNA interaction – biochemical, fluorescence polarization, dose response (AID 1964);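 further: purified POS-1 fused to maltose binding protein made in E. coli; potency of compounds blocking POS-1 binding to fluorescent RNA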
Calls of active or inactive are those of the source.

-- ask Given the entry CC(=O)/N=c1\c(C#N)cc2c(=O)n3cccc(C)c3nc2n1CCCOC(C)C , report its measured EC50.
-- reply > 300 µM (not active)

-- ask Quick one: EC50 for O=C(NCC1CCCO1)c1ccc(CS(=O)(=O)Cc2ccc(F)cc2)o1 (stereo not given) ?
-- reply > 300 µM (not active)

-- ask Query: EC50; subject: Cc1c(N/C=C2\C(=O)NC(=O)N(Cc3ccco3)C2=O)c(=O)n(-c2ccccc2)n1C
-- reply > 300 µM (not active)

-- ask Reported EC50, molecule C/C(CCc1oc2ccc(Cl)cc2c1-c1ccc(C)o1)=N\O : ____
-- reply > 300 µM (not active)

-- ask Any idea what its EC50 is? The molecule is O=C(O)c1ccc2c(c1)[C@@H]1C=CC[C@@H]1[C@H](c1ccccn1)N2
-- reply 4.61 µM (inconclusive)

-- ask Returns the measured EC50 for the input molecule. Input: CCOC(=O)c1c(-n2c(C)cc(/C=C3/C(=O)NC(=O)N(CC)C3=O)c2C)sc2c1CCCC2
-- reply 25.1 µM (active)

-- ask Need EC50 of CSc1nnc(SCc2nc3sc(C(=O)O)c(C)c3c(=O)[nH]2)s1 , thanks.
-- reply 25.4 µM (active)

-- ask Looking for the measured EC50 of COc1ccc(OC)c(S(=O)(=O)NC2CCN(Cc3ccccc3)CC2)c1 , can you help?
-- reply > 300 µM (not active)

-- ask Item O=C(O)CCC(=O)NCc1ccc2[nH]c3c(c2c1)CCCC3 has what recorded EC50?
-- reply 82.1 µM (active)

-- ask Which measured EC50 value corresponds to CCc1ccc(/C=C2/SC(=S)N(CCC(=O)Nc3cccnc3)C2=O)cc1 ?
-- reply 141 µM (active)
